# Tested on: NKM-1;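 also: growth inhibition of NKM-1 cells, read out with a cell viability assay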
# test.name: cells
# Assay type: functional, cell-based
# experimental.conditions: Homo sapiens
# Description: SANGER: Inhibition of human NKM-1 cell growth in a cell viability assay.
test.readout: IC50 (nM)

- compound: "Cn1cncc1[C@@](N)(c1ccc(Cl)cc1)c1ccc2c(c1)c(-c1cccc(Cl)c1)cc(=O)n2C [TIPIFARNIB]"
  reading.qualifier: "="
  reading: 774
- compound: "Cn1cc(C2=C(c3ccc(Cl)cc3Cl)C(=O)NC2=O)c2ccccc21 [SB-216763]"
  reading.qualifier: ">"
  reading: 10000
- compound: "C=CCc1cccc(/C=N/NC(=O)CN2CCN(Cc3ccccc3)CC2)c1O [PAC-1]"
  reading.qualifier: ">"
  reading: 2560
- compound: "Nc1ccn([C@@H]2O[C@H](CO)[C@@H](O)[C@@H]2O)c(=O)n1 [CYTARABINE]"
  reading.qualifier: "="
  reading: 1060
- compound: "O=c1cc(-c2cccc3c2Sc2ccccc2S3)oc(N2CCOCC2)c1 [KU-55933]"
  reading.qualifier: ">"
  reading: 10000
- compound: "O=C1N=C(NCc2cccs2)S/C1=C\\c1ccc2ncccc2c1"
  reading.qualifier: ">"
  reading: 5000
- compound: "CCC(=O)N1CCN(c2ccc(-n3c(=O)ccc4cnc5ccc(-c6cnc7ccccc7c6)cc5c43)cc2C(F)(F)F)CC1 [TORIN1]"
  reading.qualifier: "="
  reading: 987
- compound: "COc1ccc(-c2ccc3c(N4CCOC[C@@H]4C)nc(N4CCOC[C@@H]4C)nc3n2)cc1CO [AZD-8055]"
  reading.qualifier: "="
  reading: 200
- compound: "CC1=C2C[C@H]3[C@@H](CC=C4C[C@@H](O)CC[C@@]43C)[C@@H]2CC[C@]12O[C@@H]1C[C@H](C)CN[C@H]1[C@H]2C [CYCLOPAMINE]"
  reading.qualifier: ">"
  reading: 16000
